Where do these numbers come from? They come from PubChem BioAssay AID588511.

# assay_system: Anoctamin-1 (Mus musculus)
# measurement_description: blockers of mouse ANO1 Ca-activated Cl channel – cell-based, HTS, primary screen (AID 588511)
# conditions_used: HEK293 TMEM16A/YFP iodide influx fluorescence, ionomycin; at 10 µM
Screen size: about 310,000 compounds; about 3,600 (1.2%) were called active.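 Rule for the calls: active = ratio plate-corrected score three or more library SD toward inhibition, starting fluorescence score within five deviations; inactive = the rest.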 Many of the other results were omitted from the sample, so actives are more common in it than they were.
Give your call using only these classes: YES = active, NO = inactive

Example entries begin here.
compound	label_value
CCn1cc(CN2CCC(C(=O)Nc3cccc(-c4cccc(Cl)c4)c3)CC2)cn1	NO
Cc1ccc(Cc2nnc(SCC(=O)Nc3ccc(C)cc3C)[nH]c2=O)cc1	NO
CC(NC(=O)c1ccco1)C(=O)Nc1nc(-c2ccccn2)cs1 (centres undefined)	YES

Shift focus to the following entry.
Field: outcome | Entry: `CC(=O)c1cc(CN2CCC(C(=O)Nc3cccc(-c4cscn4)c3)CC2)cs1` YES

====

# assay_system: Anoctamin-1 (Mus musculus) (UniProt Q8BHY3)
# Sequence (Q8BHY3 whole entry, looked up): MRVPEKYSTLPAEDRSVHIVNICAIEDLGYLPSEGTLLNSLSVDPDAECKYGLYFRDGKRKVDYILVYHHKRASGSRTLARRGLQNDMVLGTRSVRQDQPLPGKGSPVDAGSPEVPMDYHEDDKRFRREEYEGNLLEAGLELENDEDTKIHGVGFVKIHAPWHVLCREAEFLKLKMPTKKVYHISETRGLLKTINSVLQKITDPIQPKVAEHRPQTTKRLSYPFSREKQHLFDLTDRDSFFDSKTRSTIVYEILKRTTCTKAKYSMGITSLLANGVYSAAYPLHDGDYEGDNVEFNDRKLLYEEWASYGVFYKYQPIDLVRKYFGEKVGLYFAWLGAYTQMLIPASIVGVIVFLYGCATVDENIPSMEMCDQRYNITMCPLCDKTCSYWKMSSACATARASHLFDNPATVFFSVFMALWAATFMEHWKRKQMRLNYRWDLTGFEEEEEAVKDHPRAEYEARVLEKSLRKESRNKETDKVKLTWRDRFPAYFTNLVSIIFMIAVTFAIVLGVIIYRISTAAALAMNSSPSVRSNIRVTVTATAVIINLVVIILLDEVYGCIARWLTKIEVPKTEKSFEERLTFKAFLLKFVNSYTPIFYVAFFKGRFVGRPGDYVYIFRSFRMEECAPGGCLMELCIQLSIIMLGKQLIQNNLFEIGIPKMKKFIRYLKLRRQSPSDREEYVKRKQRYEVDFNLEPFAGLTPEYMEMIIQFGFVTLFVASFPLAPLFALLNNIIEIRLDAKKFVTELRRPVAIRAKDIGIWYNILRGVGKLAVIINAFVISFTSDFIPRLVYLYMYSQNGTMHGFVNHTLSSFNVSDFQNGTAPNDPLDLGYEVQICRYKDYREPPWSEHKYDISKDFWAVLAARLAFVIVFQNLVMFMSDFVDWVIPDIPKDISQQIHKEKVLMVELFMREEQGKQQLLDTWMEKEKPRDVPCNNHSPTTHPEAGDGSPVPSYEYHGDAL
# measurement_description: blockers of mouse ANO1 Ca-activated Cl channel – cell-based, HTS, primary screen (AID 588511)
# conditions_used: HEK293 TMEM16A/YFP iodide influx fluorescence, ionomycin; at 10 µM
Screen size: about 310,000 compounds; about 3,600 (1.2%) were called active.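 How the source made its calls: active means ratio plate-corrected score three or more library SD toward inhibition, starting fluorescence score within five deviations; inactive means the rest.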 The entries come from a sample that favours actives as a whole.
Hello, when you answer, please use one of the following outcomes: active, inactive

molecule	label_value
N#Cc1c(-c2ccccc2)nc(SCc2cccc(C(F)(F)F)c2)[nH]c1=O	active
CSc1ncc(Sc2ccccc2)c(C(=O)O)n1	inactive
O=C(Nc1nnc(S(=O)(=O)N2CCCCCC2)s1)c1cccc(Br)c1	inactive
O=c1[nH]c(SCc2ccccc2)nnc1-c1ccccc1	inactive
Cc1cccc(C)c1N1C(=O)CN(Cc2ccccc2)C1=S	inactive

Call for entry CSc1nnc2c(n1)OC(c1cn(C)c3ccccc13)N(C(C)=O)c1ccccc1-2 (stereo unspecified) : inactive

For this molecule, state the assay outcome: `N#Cc1c(-c2ccccc2)nc(SCc2ccc([N+](=O)[O-])cc2)[nH]c1=O` inactive

Field: outcome | Entry: `CCc1ccc(NC(=O)C(=O)NNC(=O)c2cccs2)cc1` inactive

Answer briefly: the call reported for `CCN(CC)C(=O)Oc1ccc(OC(=O)N(CC)CC)cc1` in this assay. inactive

Which outcome was entered for the molecule `Cc1ccc(CSc2nc(-c3ccccc3)c(C#N)c(=O)[nH]2)cc1` in this test? active

Per the assay record, what outcome was assigned to `O=c1[nH]c(SCc2cccc(F)c2)nc2ccccc12` ? inactive

====

# assay_system: Anoctamin-1 (Mus musculus)
# measurement_description: blockers of mouse ANO1 Ca-activated Cl channel – cell-based, HTS, primary screen (AID 588511)
# conditions_used: HEK293 TMEM16A/YFP iodide influx fluorescence, ionomycin; at 10 µM
Hit rate of the full screen: of about 310,000 compounds, about 3,600 (1.2%) were called active.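 Rule for the calls: active = ratio plate-corrected score three or more library SD toward inhibition, starting fluorescence score within five deviations; inactive = the rest.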 The entries come from a sample that favours actives as a whole.
Mark one answer only. Choices: YES = active, NO = inactive

Answered cases to consult:
compound	label_value
CCc1cccc(NC(=O)COC(=O)C2CCN(c3ccc(C(F)(F)F)cn3)CC2)c1	NO
COC(=O)c1cc(OCC(=O)NC2CCCc3ccccc32)cc(C(=O)OC)c1 (stereo not drawn)	NO
Cc1ccc(CNS(=O)(=O)CCNC(=O)c2ccccc2)cc1	NO
CC(C)Oc1ccc(/C=C(\NC(=O)/C=C/c2ccco2)C(=O)NCCc2nc3ccccc3[nH]2)cc1	NO
O=C(CCCN1C(=O)/C(=C\c2ccccc2)SC1=S)Nc1ccccc1O	NO

Proceed to the following item.
// outcome(item) with item = Cc1cc(-c2ccc(C)c(S(=O)(=O)NC(C)Cc3ccco3)c2)on1 (stereo not drawn) NO
